Experiment: chemical genetic growth profiling, strain panel (AID 1159580);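 further: tested at 20 µM; growth read once vehicle control cultures reached saturation at 30 °C; 1 = growth at the plate median or of vehicle wells; lower values mean less growth of the strain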
Conditions: S. cerevisiae deletion strains, growth OD, locus YML016C, strain PPZ1, hits give low values
In all, about 5,500 compounds went through this assay and about 2,000 (36%) were called active. Not shown: some 18% with an inconclusive outcome. The list shows a part of the results.
// values below are reported normalized growth
endpoint_name: normalized growth

* CN1CCC(OC(c2ccccc2)c2ccccc2)CC1 | 0.983
* CCCCCCCCC(=O)NCc1ccc(O)c(OC)c1 | 0.978
* Clc1ccc(C(OCCN2CCCCC2)c2ccccc2)cc1 (stereo not given) | 0.999
* Oc1cc(O)c2c(c1)OC(c1cc(O)c(O)c(O)c1)C(O)C2c1c(O)cc(O)c2c1OC(c1cc(O)c(O)c(O)c1)C(O)C2c1c(O)cc(O)c2c1OC(c1cc(O)c(O)c(O)c1)C(O)C2 (stereo not given) | 0.94
* COC(=O)/C=C/C(C)=C/C=C/C(C)=C/C=C/C=C(C)/C=C/C=C(C)/C=C/C(=O)O | 1.02
* O=C1c2ccc(O)cc2O[C@H](c2cc(O)c(O)c(O)c2)[C@H]1O | 0.987
* Oc1cc(O)c2c(c1)O[C@H](c1ccc(O)c(O)c1)[C@@H](O)C2 | 0.999
* COc1ccc([C@H]2Oc3c(I)c(OC)cc(OC)c3C[C@@H]2O)cc1OC | 1.01
* Oc1cc(O)c2c(c1)O[C@H](c1cc(O)c(O)c(O)c1)[C@H](O)C2 | 0.981
* Oc1ccc2c(c1)O[C@H](c1ccc(O)c(O)c1)[C@@H](O)C2 | 1.03

* * *

Overview of reported normalized growth across a group of compounds:
Assay: chemical genetic growth profiling, strain panel (AID 1159580)
Conditions: S. cerevisiae deletion strains, growth OD, locus YCL061C, strain MRC1, hits give low values
About 2,000 (36%) of roughly 5,500 compounds were called active. Another 18% or so got no clear call; they are omitted. The list shows a part of the results.
endpoint_name: normalized growth

• COc1cc([C@@H]2c3cc4c(cc3[C@@H](O)C3COC(=O)C32)OCO4)cc(OC)c1O (stereo partly drawn) = 0.978
• COC(=O)[C@@H]1OC(=O)C2OC23[C@@]1(C)CCC1[C@]2(C)C(C[C@H](O)[C@]13C)C(C)(C)[C@H](OC(C)=O)C[C@@H]2OC(C)=O (stereo partly drawn) = 1.02
• NCCc1cnc[nH]1 = 1.02
• CN1CC(=O)N=C1N = 1.01
• NCCCS(=O)(=O)O = 1.02
• COC(=O)CCCCCCCC(=O)Nc1ccc(Cl)cc1 = 0.998
• COc1ccc(/C=C2\CC/C(=C\c3ccc(OC)c(OC)c3)C2=O)cc1OC = 0.996
• O=C(NC(=O)c1ccccc1Cl)Nc1ccc(OC(F)(F)F)cc1 = 1.04
• CCCOc1ccccc1/C=N\NC(=S)Nc1cccc(F)c1 = 1.01
• COc1c(Br)cc([N+](=O)[O-])c(OC)c1C(N)=O = 1.01
• Cn1c2c(c(=O)n(C)c1=O)CN(CCCCCCO)CN2 = 1.01
• COc1ccc2c(c1)OC/C(=C/c1ccc(OC)c(OC)c1)C2=O = 0.887
• Oc1ccc2c(c1)O[C@H](c1ccc(O)c(O)c1)[C@@H](O)C2 = 1.02
• O=C(CC1NCCN(Cc2ccccc2)C1=O)Nc1ccc(Cl)cc1 (stereo not drawn) = 0.981
• CN(C)C=Nc1ncccc1OCc1ccc(Cl)c(Cl)c1 = 0.945
• C/C(=C\C(=O)Nc1ccc(F)cc1)Nc1ccc(F)cc1 = 1.04
• COc1ccc([C@H]2Oc3c(I)c(OC)cc(OC)c3C[C@@H]2O)cc1OC = 1.02
• NCCS(=O)(=O)O = 0.98
• CCCCNC(=O)NS(=O)(=O)c1ccc(C)cc1 = 1.01
• Oc1cc(O)c2c(c1)O[C@H](c1cc(O)c(O)c(O)c1)[C@H](O)C2 = 1.02
• NS(=O)(=O)c1cc2c(cc1Cl)NC=NS2(=O)=O = 1.01
• CCCCCCCCCCCCN1CNC(=S)NC1 = 0.68
• CC1(C)S[C@@H]2[C@H](NC(=O)[C@H](N)c3ccccc3)C(=O)N2[C@H]1C(=O)O = 0.973

* * *

Assay: chemical genetic growth profiling, strain panel (AID 1159580)
Conditions: S. cerevisiae deletion strains, growth OD, locus YLR085C, strain ARP6, hits give low values
The campaign covered roughly 5,500 compounds. About 2,000 (36%) were called active. Not shown: some 18% with an inconclusive outcome. Some of the results follow.
Assign labels as follows, please: 1 (yes) for normalized growth below 1; 0 (no) for normalized growth equal to or exceeding 1.

• O=[N+]([O-])c1ccc(S(=O)(=O)N2CCCCC2)cc1 = 1 (yes)
• COc1ccc(-n2c(=S)[nH]c(=O)c3cccnc32)cc1 = 0 (no)
• Cc1ccc(C)n1-c1ccc(C(=O)NNC(=O)c2ccc3nccnc3c2)cc1 = 1 (yes)
• CCCOc1ccccc1/C=N\NC(=S)Nc1cccc(F)c1 = 1 (yes)
• O=C(CSc1ccc(Cl)cc1)Nc1ccc(F)cc1 = 1 (yes)
• O=C(NNC(=S)Nc1cccc(Cl)c1)C1CC1 = 1 (yes)
• OC1(c2ccc(F)cc2)Cc2ccccc2C2=NCCN21 (stereo unspecified) = 1 (yes)
• CSc1c(-c2ccccc2)c(N)nn1S(=O)(=O)c1ccccc1 = 1 (yes)
• CN(C)C=Nc1ncccc1OCc1ccc(Cl)c(Cl)c1 = 1 (yes)
• Cn1c2c(c(=O)n(C)c1=O)CN(CCCCCCO)CN2 = 0 (no)
• O=C(c1c(F)cccc1F)N1CCN(C(=O)c2c(F)cccc2F)CC1 = 1 (yes)
• S=c1nc2[nH]c3ccccc3c2n[nH]1 = 1 (yes)
• Cc1oc(C(C)(C)C)cc1C(=O)Nc1ccc([N+](=O)[O-])cc1 = 1 (yes)
• CCOC(=O)Cc1csc(N=CNO)n1 = 0 (no)
• CSc1nc2ccccc2[nH]1 = 1 (yes)

* * *

Test: chemical genetic growth profiling, strain panel (AID 1159580);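 further: tested at 20 µM; growth read once vehicle control cultures reached saturation at 30 °C; 1 = growth at the plate median or of vehicle wells; lower values mean less growth of the strain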
Details: S. cerevisiae deletion strains, growth OD, locus YKR026C, strain gcn3, hits give low values
Among all 5,500 compounds or so, about 2,000 (36%) were called active. About 18% were inconclusive and are not listed. The list shows a part of the results.
Doc: threshold 1 (exclusive). Items with normalized growth beneath it return True; others return False.

- CN(C)CCCC1(c2ccc(F)cc2)OCc2cc(C#N)ccc21 (centres undefined): True
- O=C(O[C@@H]1Cc2c(O)cc(O)cc2O[C@@H]1c1ccc(O)c(O)c1)c1cc(O)c(O)c(O)c1: False

* * *

Assay: chemical genetic growth profiling, strain panel (AID 1159580);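 further: tested at 20 µM; growth read once vehicle control cultures reached saturation at 30 °C; 1 = growth at the plate median or of vehicle wells; lower values mean less growth of the strain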
Conditions: S. cerevisiae deletion strains, growth OD, locus YER016W, strain bim1, hits give low values
In all, about 5,500 compounds went through this assay and about 2,000 (36%) were called active. Not shown: some 18% with an inconclusive outcome. Some of the results follow.
List of normalized growth values.
endpoint_name: normalized growth

• Cc1ccccc1C(OCCN(C)C)c1ccccc1 (stereo not drawn) = 0.998 (inactive)
• COc1ccc2c(c1)OC/C(=C\c1ccc(OC)c(O)c1)C2=O = 0.949 (inactive)
• C=CCc1ccc(OC)cc1 = 1.01 (inactive)
• COc1ccc(C(CN(C)C)C2(O)CCCCC2)cc1 (stereo not drawn) = 0.972 (inactive)
• Cc1ncc(CNC(=O)N(CCCl)N=O)c(N)n1 = 1.02 (inactive)
• Clc1ccc(C(OCCN2CCCCC2)c2ccccc2)cc1 (stereo not drawn) = 1.02 (inactive)
• COc1ccc(C(=O)O)cc1OC = 1.01 (inactive)
• c1ccc2c(c1)sc1ccccc12 = 0.957 (inactive)
• C[C@@H]1CC(Cl)CC[C@H]1C(=O)OC(C)(C)C (stereo partly drawn) = 0.975 (inactive)
• CC(C)NCC(O)COc1cccc2[nH]ccc12 (stereo not drawn) = 0.979 (inactive)
• COc1ccc(C(c2ccc(OC)cc2)C(Cl)(Cl)Cl)cc1 = 1.02 (inactive)
• CC#CC1(O)CCC2C3CCC4=CC(=O)CCC4=C3C(c3ccc(N(C)C)cc3)CC21C (stereo not drawn) = 0.996 (inactive)
• N=c1ccn2c(n1)OC1C(O)C(CO)OC12 (stereo not drawn) = 1 (inactive)

* * *

Experiment: chemical genetic growth profiling, strain panel (AID 1159580);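 further: tested at 20 µM; growth read once vehicle control cultures reached saturation at 30 °C; 1 = growth at the plate median or of vehicle wells; lower values mean less growth of the strain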
Conditions: S. cerevisiae deletion strains, growth OD, locus YKL190W, strain CNB1
Out of some 5,500 compounds screened, about 2,000 (36%) were called active. Not shown: some 18% with an inconclusive outcome. No stated cut-off is given here; in the data, active means normalized growth mostly below about 0.91 (no sharp cut-off); inconclusive means no clear call, values can overlap the other calls; inactive means mostly above about 0.92. Some of the results follow.
Classes used: Y for active, N for inactive

• O=C1C(Cl)=C(Cl)C(=O)C(Cl)=C1Cl = Y
• CN1C2CCC1CC(OC(c1ccccc1)c1ccccc1N)C2 (stereo not drawn) = N
• C/C(=C\C(=O)Nc1ccc(F)cc1)Nc1ccc(F)cc1 = N
• C#CCN(C)Cc1ccccc1 = N
• CN1C2C[C@H](OC(=O)[C@H](CO)c3ccccc3)C[C@H]1[C@@H](O)C2 = N
• CCCCCCCCC(=O)NCc1ccc(O)c(OC)c1 = N
• O=C(c1c(F)cccc1F)N1CCN(C(=O)c2c(F)cccc2F)CC1 = N
• Nc1nc(=S)c2[nH]cnc2[nH]1 = N
